- SYSTEM_TESTED: DGKα (Homo sapiens (Human))
- Sequence (P23743 whole entry): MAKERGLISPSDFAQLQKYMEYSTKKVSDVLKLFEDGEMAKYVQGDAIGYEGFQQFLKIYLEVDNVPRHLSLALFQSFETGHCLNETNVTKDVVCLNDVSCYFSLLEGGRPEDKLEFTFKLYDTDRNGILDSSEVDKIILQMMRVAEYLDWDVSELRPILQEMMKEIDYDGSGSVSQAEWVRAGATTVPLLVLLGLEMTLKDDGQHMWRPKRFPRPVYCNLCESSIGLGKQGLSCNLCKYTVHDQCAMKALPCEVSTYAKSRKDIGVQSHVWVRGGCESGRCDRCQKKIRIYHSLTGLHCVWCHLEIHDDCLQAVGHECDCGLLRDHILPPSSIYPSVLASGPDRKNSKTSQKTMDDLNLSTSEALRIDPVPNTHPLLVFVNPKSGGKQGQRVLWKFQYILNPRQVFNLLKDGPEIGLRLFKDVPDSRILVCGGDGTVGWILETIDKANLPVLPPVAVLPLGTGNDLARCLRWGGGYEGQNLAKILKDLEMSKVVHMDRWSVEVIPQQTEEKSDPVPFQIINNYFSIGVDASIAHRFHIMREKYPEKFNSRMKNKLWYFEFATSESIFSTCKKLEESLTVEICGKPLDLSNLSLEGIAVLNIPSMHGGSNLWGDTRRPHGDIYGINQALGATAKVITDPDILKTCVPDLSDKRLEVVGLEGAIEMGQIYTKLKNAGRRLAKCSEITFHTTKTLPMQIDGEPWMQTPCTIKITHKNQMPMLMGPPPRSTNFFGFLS
- ASSAY_DETAILS: In vitro DGKα inhibition assay (ADP-Glo)
- Type: biochemical
- CONDITION: first column of Table A; cell prints a figure instead of a class symbol (possibly a misprint of +)
OBSERVATION_TYPE: pIC50
Reminder that pIC50 means the negative base-10 logarithm of the concentration expressed in mol/L.

Qu. Look at this compound and give its reported pIC50. Cc1nc2c(N3C[C@@H](CO)N(C(c4ccc(C(F)(F)F)cc4)C4CC(F)(F)C4)C[C@@H]3C)nc(=O)n(C)c2n1C[C@@H]1CCCO1 (stereo partly shown) [Example 41]
Ans. 9.00

* * *

- SYSTEM_TESTED: DGKζ (Homo sapiens (Human))
- Sequence (Q13574 whole entry): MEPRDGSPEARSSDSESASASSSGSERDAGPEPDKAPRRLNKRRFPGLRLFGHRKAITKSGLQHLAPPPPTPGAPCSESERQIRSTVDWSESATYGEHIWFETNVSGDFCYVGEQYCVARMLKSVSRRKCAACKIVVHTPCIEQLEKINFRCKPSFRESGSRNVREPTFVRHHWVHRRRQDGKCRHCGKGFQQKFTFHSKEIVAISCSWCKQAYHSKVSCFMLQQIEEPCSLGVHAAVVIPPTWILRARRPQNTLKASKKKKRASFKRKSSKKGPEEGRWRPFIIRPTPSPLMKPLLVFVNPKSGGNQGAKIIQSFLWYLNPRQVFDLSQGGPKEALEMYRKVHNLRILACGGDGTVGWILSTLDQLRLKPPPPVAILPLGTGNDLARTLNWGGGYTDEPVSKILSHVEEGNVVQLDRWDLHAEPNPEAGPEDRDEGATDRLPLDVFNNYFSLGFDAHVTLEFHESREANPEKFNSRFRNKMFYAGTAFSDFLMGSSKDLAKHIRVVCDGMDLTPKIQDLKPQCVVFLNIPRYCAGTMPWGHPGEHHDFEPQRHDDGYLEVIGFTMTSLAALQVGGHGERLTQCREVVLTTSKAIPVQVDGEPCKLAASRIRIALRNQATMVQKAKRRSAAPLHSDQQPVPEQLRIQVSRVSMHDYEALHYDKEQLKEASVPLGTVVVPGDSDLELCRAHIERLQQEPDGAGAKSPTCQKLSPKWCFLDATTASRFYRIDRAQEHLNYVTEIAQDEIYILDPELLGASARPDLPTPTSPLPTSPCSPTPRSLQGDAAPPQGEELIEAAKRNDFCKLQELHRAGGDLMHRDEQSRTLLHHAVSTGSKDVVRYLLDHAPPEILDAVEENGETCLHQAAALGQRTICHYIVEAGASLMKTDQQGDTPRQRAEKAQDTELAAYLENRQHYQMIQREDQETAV
- ASSAY_DETAILS: In vitro DGKζ inhibition assay (ADP-Glo)
- CONDITION: second column of Table A, head printed DGKα, presumably DGKζ; His-tagged human recombinant DGKζ 0.4 nM, 30 μM ATP, 20 μM DLG
OBSERVATION_TYPE: IC50

CC[C@@H]1CN(c2nc(=O)n(C)c3c2nc(C)n3C[C@H]2OCC[C@@H]2O)[C@@H](C)CN1[C@@H](CC)c1ccc(C(F)(F)F)cc1 = ≤ 10 nM
CC[C@@H]1CN(c2nc(=O)n(C)c3c2nc(C)n3C[C@@H]2CCCO2)[C@@H](C)CN1[C@@H](C)c1ccc(C(F)(F)F)cc1 = ≤ 10 nM
C[C@@H]1CN(c2nc(=O)[nH]c3c2ncn3C[C@@H]2CCCO2)[C@@H](C)CN1C(c1ccc(F)cc1)c1ccc(F)cc1 = ≤ 100 nM
CC(C)CC(c1ccc(Cl)cc1)N1C[C@H](C)N(c2nc(=O)n(C)c3c2ncn3C[C@H]2OCC[C@@H]2O)C[C@H]1C (single isomer, unassigned) = ≤ 10 nM
Cc1nc2c(N3C[C@@H](C)N(C(c4ccc(F)cc4)c4ccc(F)cc4)C[C@@H]3C)nc(=O)n(C)c2n1C[C@@H]1CCCO1 = ≤ 10 nM

Qu. Look at this compound and give its reported IC50. CC(C)[C@@H](c1ccc(Cl)cc1)N1C[C@H](C)N(c2nc(=O)n(C)c3c2ncn3CC2(O)CCCC2)C[C@H]1C
Ans. ≤ 10 nM

Qu. Look at this compound and give its reported IC50. CC[C@@H]1CN(c2nc(=O)n(C)c3c2nc(C)n3C[C@@H]2CCCO2)[C@@H](C)CN1C(c1ccc(C(F)(F)F)c(F)c1)C(C)C (single isomer, unassigned)
Ans. ≤ 10 nM

Qu. Look at this compound and give its reported IC50. C[C@@H]1CN(c2nc(=O)n(C)c3c2nnn3C[C@H]2CCCO2)[C@@H](C)CN1C(c1ccc(F)cc1)c1ccc(F)cc1
Ans. ≤ 10 nM

Qu. Look at this compound and give its reported IC50. C[C@@H]1CN(c2nc(=O)n(C)c3c2c(F)cn3C[C@@H]2CCCO2)[C@@H](C)CN1C(c1ccc(F)cc1)c1ccc(F)cc1
Ans. ≤ 100 nM

Qu. Look at this compound and give its reported IC50. C[C@@H]1CN(c2nc(=O)n(C)c3c2ncn3C[C@@H]2CCCO2)[C@@H](C)CN1C(c1ccc(F)cc1)c1ccc(F)cc1
Ans. ≤ 10 nM

Qu. Look at this compound and give its reported IC50. CC[C@@H]1CN(c2nc(=O)n(C)c3c2nc(C)n3C[C@H]2OCC[C@H]2O)[C@@H](C)CN1[C@H](CC)c1ccc(C(F)(F)F)cc1
Ans. ≤ 10 nM

Qu. Look at this compound and give its reported IC50. CC[C@@H]1CN(c2nc(=O)n(C)c3c2nnn3C[C@H]2CCCO2)[C@@H](C)CN1C(c1ccc(C(F)(F)F)cc1)C1CC(F)(F)C1 (stereo partly drawn)
Ans. ≤ 10 nM

Reference source: patent US20250066363A1
